biological target: Dual specificity calcium/calmodulin-dependent 3',5'-cyclic nucleotide phosphodiesterase 1B (Homo sapiens); test: Inhibition of PDE1B (unknown origin) using [3H]-cGMP substrate incubated for 15 mins by liquid scintillation counting method
Sequence (Q01064 whole entry): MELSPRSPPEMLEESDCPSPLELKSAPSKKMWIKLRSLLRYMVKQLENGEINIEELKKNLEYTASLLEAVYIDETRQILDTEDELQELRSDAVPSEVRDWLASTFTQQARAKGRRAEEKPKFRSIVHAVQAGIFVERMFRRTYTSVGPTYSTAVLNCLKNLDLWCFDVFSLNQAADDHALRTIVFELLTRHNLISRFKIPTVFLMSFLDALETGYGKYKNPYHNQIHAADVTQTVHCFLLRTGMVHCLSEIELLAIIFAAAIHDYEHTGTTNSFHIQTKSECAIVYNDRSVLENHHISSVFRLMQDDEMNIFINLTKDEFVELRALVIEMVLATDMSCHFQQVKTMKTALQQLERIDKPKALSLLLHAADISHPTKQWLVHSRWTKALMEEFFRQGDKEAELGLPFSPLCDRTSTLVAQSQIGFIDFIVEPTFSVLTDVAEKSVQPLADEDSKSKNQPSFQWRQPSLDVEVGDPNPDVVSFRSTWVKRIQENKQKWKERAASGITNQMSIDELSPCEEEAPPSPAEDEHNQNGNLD
measure: IC50 (µM)

A. Cn1c(=O)c2c(Nc3ccc(F)cc3)n(Cc3ccc(S(C)(=O)=O)cc3)nc2n(CC2CC2)c1=O
B. Cn1c(=O)c2c(Nc3ccccc3)n(Cc3ccc(-c4cccc(F)n4)cc3)nc2n(CC2CC2)c1=O
query: Could you kindly indicate whether A or B has the higher IC50 value? Pick one; state its label.
result: A
(A: 0.021 µM, B: 0.0038 µM)

====

biological target: High affinity cAMP-specific and IBMX-insensitive 3',5'-cyclic phosphodiesterase 8A (Homo sapiens); test: Inhibition of full-length recombinant human PDE8A using [3H]-cAMP as substrate incubated for 10 mins by SPA assay
Sequence (O60658 whole entry): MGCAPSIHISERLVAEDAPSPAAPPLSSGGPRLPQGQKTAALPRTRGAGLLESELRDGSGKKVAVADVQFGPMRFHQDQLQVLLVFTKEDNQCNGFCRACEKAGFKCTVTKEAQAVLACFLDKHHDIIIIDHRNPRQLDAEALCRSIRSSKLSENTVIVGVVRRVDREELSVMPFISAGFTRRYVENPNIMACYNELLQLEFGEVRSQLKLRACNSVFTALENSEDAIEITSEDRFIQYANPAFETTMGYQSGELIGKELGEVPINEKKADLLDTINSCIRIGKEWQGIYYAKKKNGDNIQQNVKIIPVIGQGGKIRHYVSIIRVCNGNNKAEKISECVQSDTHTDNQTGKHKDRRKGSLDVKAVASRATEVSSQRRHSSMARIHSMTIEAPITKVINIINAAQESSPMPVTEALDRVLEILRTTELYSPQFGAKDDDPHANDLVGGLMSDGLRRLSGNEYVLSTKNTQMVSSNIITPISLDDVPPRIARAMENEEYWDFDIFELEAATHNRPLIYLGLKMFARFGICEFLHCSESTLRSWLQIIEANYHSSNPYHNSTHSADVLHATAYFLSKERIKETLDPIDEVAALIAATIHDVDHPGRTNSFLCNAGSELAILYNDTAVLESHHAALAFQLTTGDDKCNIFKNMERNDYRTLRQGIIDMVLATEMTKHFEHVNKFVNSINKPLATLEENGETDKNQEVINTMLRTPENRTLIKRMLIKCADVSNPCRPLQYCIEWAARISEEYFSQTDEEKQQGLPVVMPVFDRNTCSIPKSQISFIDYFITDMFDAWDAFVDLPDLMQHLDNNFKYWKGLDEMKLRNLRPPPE
measure: IC50

query: Need IC50, item Cn1c(=O)c2c(Nc3ccc(F)cc3)n(Cc3ccc(S(C)(=O)=O)cc3)nc2n(CC2CC2)c1=O
result: > 10 µM

====

biological target: Dual specificity calcium/calmodulin-dependent 3',5'-cyclic nucleotide phosphodiesterase 1A (Homo sapiens, UniProt P54750); experiment: Inhibition of PDE1A3 (unknown origin)
Sequence (P54750 whole entry): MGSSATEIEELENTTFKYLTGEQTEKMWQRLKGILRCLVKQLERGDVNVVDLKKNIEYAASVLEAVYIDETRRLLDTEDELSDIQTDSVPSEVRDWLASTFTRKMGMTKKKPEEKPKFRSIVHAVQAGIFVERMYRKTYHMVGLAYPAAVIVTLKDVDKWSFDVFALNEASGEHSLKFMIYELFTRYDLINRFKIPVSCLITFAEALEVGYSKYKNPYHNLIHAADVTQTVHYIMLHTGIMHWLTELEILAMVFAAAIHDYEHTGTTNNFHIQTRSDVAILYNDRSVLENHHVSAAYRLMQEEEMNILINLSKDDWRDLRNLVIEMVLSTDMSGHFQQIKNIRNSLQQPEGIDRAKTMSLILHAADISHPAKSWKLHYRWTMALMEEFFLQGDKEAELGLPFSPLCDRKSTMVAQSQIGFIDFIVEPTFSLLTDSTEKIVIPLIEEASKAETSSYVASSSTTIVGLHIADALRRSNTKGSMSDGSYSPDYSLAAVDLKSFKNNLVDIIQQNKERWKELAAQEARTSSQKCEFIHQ
measure: IC50 (nM)
Expressed in nM, but write only the number.

query: Need IC50, item O=c1c2c(Cc3ccccc3)n[nH]c2c2cccnc2n1-c1ccccc1
result: 32

====

molecular target: Dual specificity calcium/calmodulin-dependent 3',5'-cyclic nucleotide phosphodiesterase 1C (Homo sapiens); experiment: Inhibition of PDE1C (unknown origin) using [3H]-cAMP as substrate incubated for 1 hr by SPA assay
Sequence (Q14123 whole entry): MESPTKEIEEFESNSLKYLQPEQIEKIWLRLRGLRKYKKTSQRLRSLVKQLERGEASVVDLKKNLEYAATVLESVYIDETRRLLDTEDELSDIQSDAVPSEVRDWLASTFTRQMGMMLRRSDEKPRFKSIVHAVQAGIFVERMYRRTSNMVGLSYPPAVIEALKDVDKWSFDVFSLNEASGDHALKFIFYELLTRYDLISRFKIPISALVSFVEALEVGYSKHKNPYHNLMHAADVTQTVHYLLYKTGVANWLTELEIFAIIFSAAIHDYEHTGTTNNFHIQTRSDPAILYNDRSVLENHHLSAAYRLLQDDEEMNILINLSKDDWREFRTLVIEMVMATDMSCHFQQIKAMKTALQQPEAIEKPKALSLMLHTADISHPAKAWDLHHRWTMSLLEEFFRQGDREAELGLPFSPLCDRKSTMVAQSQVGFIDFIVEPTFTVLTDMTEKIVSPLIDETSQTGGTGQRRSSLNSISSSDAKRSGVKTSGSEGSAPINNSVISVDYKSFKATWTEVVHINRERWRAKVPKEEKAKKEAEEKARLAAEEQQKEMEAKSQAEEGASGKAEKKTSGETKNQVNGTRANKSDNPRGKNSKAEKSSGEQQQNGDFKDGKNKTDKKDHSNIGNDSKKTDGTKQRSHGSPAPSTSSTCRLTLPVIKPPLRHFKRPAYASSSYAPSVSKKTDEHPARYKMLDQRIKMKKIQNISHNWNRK
pIC50: −log10 of the molar value.
measure: pIC50

1. COc1cc2ncnc(N3C[C@@H](OO)[C@@H]4OC[C@@H](OC(C)=O)[C@@H]43)c2cc1OC = 5.66

P. COc1ccc2c(N3C[C@@H](Cl)[C@@H]4OC[C@@H](OCc5ccccc5)[C@@H]43)ncnc2c1OC
Q. COc1cc2ncnc(N3C[C@@H](Cl)[C@@H]4OC[C@@H](OC)[C@@H]43)c2cc1OC
query: Pick one, P or Q : lowest reported pIC50. Pick one; state its label.
result: Q
(Q: 5.62, P: 6.24)

====

biological target: Dual specificity calcium/calmodulin-dependent 3',5'-cyclic nucleotide phosphodiesterase 1A (Homo sapiens); assay: Inhibition of PDE1A (unknown origin) using [3H]-cAMP as substrate incubated for 1 hr by SPA assay
pIC50: −log10 of the molar value.
measure: pIC50

P. COc1ccc2c(N3C[C@@H](Cl)[C@@H]4OC[C@@H](OCc5ccccc5)[C@@H]43)ncnc2c1OC
Q. COCCOC(=O)C1=C(C)NC(C)=C(C(=O)OC(C)C)C1c1cccc([N+](=O)[O-])c1 (configuration not stated) [NIMODIPINE]
query: Could you kindly indicate whether P or Q has the higher pIC50 value? Pick one; state its label.
result: Q
(Q: 5.70, P: 5.33)

====

experiment: Binding affinity to PDE1 (unknown origin) assessed as inhibition constant; set-up: species or system Homo sapiens
pKi: −log10 of the molar value.
measure: pKi

1. CN1C(=O)c2c(nn(Cc3ccc(-c4cccc(F)n4)cc3)c2Nc2ccccc2)N2C1=N[C@@H]1CCC[C@@H]12 [LENRISPODUN PHOSPHATE]
2. CNc1ncnc2c1ncn2Cc1ccccc1F [BW-A78U]
query: Could you kindly indicate whether 1 or 2 has the higher pKi value? Pick one; state its label.
result: 1
(1: 10.24, 2: 5.43)
